# Test system: Erysiphe graminis
# Protocol: Erysiphe graminis potting method
# Assay type: in vivo
# Condition info: Blumeria graminis; 100 mg/L; read-out: Erysiphe graminis control rating
Can you tell me pest or weed control at 100 µg/mL for the items I'm about to list?

Suppose we examine the compound CCS(=O)(=O)c1ccc(C(CN(C(=O)c2c(C(F)F)nn(C)c2F)C2CC2)=C(Cl)Cl)cc1 [Compound 163] ; what pest or weed control at 100 µg/mL value has been reported?
80 to 100%

Suppose we examine the compound C=C(CN(C(=O)c1c(C(F)F)nn(C)c1F)C1CC1)c1cccc(S(C)(=O)=O)c1 [Compound 49] ; what pest or weed control at 100 µg/mL value has been reported?
80 to 100%

Suppose we examine the compound C=C(CN(C(=O)c1c(C(F)F)nn(C)c1F)C1CC1)c1ccc(Cl)c(Cl)c1 [Compound 10] ; what pest or weed control at 100 µg/mL value has been reported?
80 to 100%

Suppose we examine the compound C=C(c1cc(C)ccc1C)C(C)N(C(=O)c1c(C(F)F)nn(C)c1F)C1CC1 (stereo not shown) [Compound 89] ; what pest or weed control at 100 µg/mL value has been reported?
80 to 100%

Suppose we examine the compound C=C(CN(C(=O)c1c(C(F)F)nn(C)c1F)C1CC1)c1cc(Cl)ccc1Cl [Compound 14] ; what pest or weed control at 100 µg/mL value has been reported?
80 to 100%

Suppose we examine the compound Cc1cccc(C(CN(C(=O)c2c(C(F)F)nn(C)c2F)C2CC2)=C(Cl)Cl)c1 [Compound 139] ; what pest or weed control at 100 µg/mL value has been reported?
80 to 100%

Suppose we examine the compound CCS(=O)(=O)c1cccc(C(CN(C(=O)c2c(C(F)F)nn(C)c2F)C2CC2)=C(Cl)Cl)c1 [Compound 164] ; what pest or weed control at 100 µg/mL value has been reported?
80 to 100%

Suppose we examine the compound Cc1ccc(C(C)C)c(C(CN(C(=O)c2c(C(F)F)nn(C)c2F)C2CC2)=C(Cl)Cl)c1 [Compound 145] ; what pest or weed control at 100 µg/mL value has been reported?
80 to 100%

Suppose we examine the compound Cc1ccc(C(CN(C(=O)c2c(C(F)F)nn(C)c2F)C2CC2)=C(Cl)Cl)cc1C [Compound 151] ; what pest or weed control at 100 µg/mL value has been reported?
80 to 100%

Suppose we examine the compound CC(C(=C(Cl)Cl)c1c(Br)cccc1Br)N(C(=O)c1c(C(F)F)nn(C)c1F)C1CC1 (stereo not shown) [Compound 189] ; what pest or weed control at 100 µg/mL value has been reported?
80 to 100%

Suppose we examine the compound Cn1nc(C(F)F)c(C(=O)N(CC(=C(Cl)Cl)c2cccc(Cl)c2)C2CC2)c1F [Compound 117] ; what pest or weed control at 100 µg/mL value has been reported?
80 to 100%

Suppose we examine the compound C=C(CN(C(=O)c1c(C(F)F)nn(C)c1F)C1CC1)c1cccc(Br)c1Br [Compound 86] ; what pest or weed control at 100 µg/mL value has been reported?
80 to 100%

Suppose we examine the compound C=C(c1cc(C(C)C)ccc1C)C(C)N(C(=O)c1c(C(F)F)nn(C)c1F)C1CC1 (stereo not shown) [Compound 92] ; what pest or weed control at 100 µg/mL value has been reported?
80 to 100%

Suppose we examine the compound C=C(c1cccc(S(=O)(=O)CC)c1)C(C)N(C(=O)c1c(C(F)F)nn(C)c1F)C1CC1 (stereo not shown) [Compound 108] ; what pest or weed control at 100 µg/mL value has been reported?
80 to 100%

Suppose we examine the compound Cc1ccc(C(C)(C)C)c(C(=C(Cl)Cl)C(C)N(C(=O)c2c(C(F)F)nn(C)c2F)C2CC2)c1 (stereo not shown) [Compound 199] ; what pest or weed control at 100 µg/mL value has been reported?
80 to 100%

Suppose we examine the compound CC(C(=C(Cl)Cl)c1ccc(Cl)cc1F)N(C(=O)c1c(C(F)F)nn(C)c1F)C1CC1 (stereo not shown) [Compound 206] ; what pest or weed control at 100 µg/mL value has been reported?
80 to 100%
